# Tested on: mice
# ASSAY_SETUP: LD50 mice oral / dose giving 20 to 30% inhibition of catatonia;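 further: LD50 part of every column derived from compounds dosed in aqueous solution, deaths followed over a 10-day observation period after dosing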
# Index LD50/ED20-30 annotations

>  <MOLECULE>
CCCC(N)(CC)CCC [Compound 2, 1-Ethyl-1-n-propyl-n-butylamine]

>  <ASSAYED_SYSTEM>
mice

>  <RELATIONAL_OPERATOR>
=

>  <Index LD50/ED20-30>
30

$$$$
>  <MOLECULE>
CCCCC(N)(CCCC)CCCC [Compound 12, 1,1-Di-n-butyl-n-pentylamine]

>  <ASSAYED_SYSTEM>
mice

>  <RELATIONAL_OPERATOR>
=

>  <Index LD50/ED20-30>
25

$$$$
>  <MOLECULE>
CCCC(CCC)(CCC)N1CC1 [Compound 40]

>  <ASSAYED_SYSTEM>
mice

>  <RELATIONAL_OPERATOR>
>

>  <Index LD50/ED20-30>
25

$$$$
>  <MOLECULE>
CCCCCC(C)(N)CCC (centres unmarked) [Compound 9, 1-Methyl-1-n-propyl-n-hexylamine]

>  <ASSAYED_SYSTEM>
mice

>  <RELATIONAL_OPERATOR>
=

>  <Index LD50/ED20-30>
87

$$$$
>  <MOLECULE>
CCCC(CCC)(CCC)NCCO [Compound 43]

>  <ASSAYED_SYSTEM>
mice

>  <RELATIONAL_OPERATOR>
=

>  <Index LD50/ED20-30>
23

$$$$
>  <MOLECULE>
CCCC(CCC)(CCC)N1CCOCC1 [Compound 46]

>  <ASSAYED_SYSTEM>
mice

>  <RELATIONAL_OPERATOR>
=

>  <Index LD50/ED20-30>
31

$$$$
>  <MOLECULE>
C#CCNC(CCC)(CCC)CCC [Compound 36, N-propargyl-1,1-di-n-propyl-n-butylamine]

>  <ASSAYED_SYSTEM>
mice

>  <RELATIONAL_OPERATOR>
>

>  <Index LD50/ED20-30>
25

$$$$
>  <MOLECULE>
CCCC(C)(N)CC(C)CC (centres unmarked) [Compound 6, 1,3-Dimethyl-1-n-propyl-n-pentylamine]

>  <ASSAYED_SYSTEM>
mice

>  <RELATIONAL_OPERATOR>
>

>  <Index LD50/ED20-30>
25

$$$$

====

# Test system: mice
# ASSAY_SETUP: LD50 mice oral / dose giving 100% inhibition of catatonia

>  <MOLECULAR_STRING>
CCCC(CCC)(CCC)NC

>  <RELATIONAL_OPERATOR>
=

>  <Index LD50/ED100>
16.5

$$$$
>  <MOLECULAR_STRING>
C=CCNC(CCC)(CCC)CCC

>  <RELATIONAL_OPERATOR>
=

>  <Index LD50/ED100>
21

$$$$
>  <MOLECULAR_STRING>
CC=NC(CCC)(CCC)CCC

>  <RELATIONAL_OPERATOR>
=

>  <Index LD50/ED100>
20

$$$$
>  <MOLECULAR_STRING>
CCCC(CCC)(CCC)NC(C)C

>  <RELATIONAL_OPERATOR>
=

>  <Index LD50/ED100>
21.6

$$$$
>  <MOLECULAR_STRING>
CCCC(CCC)(CCC)NCC

>  <RELATIONAL_OPERATOR>
=

>  <Index LD50/ED100>
16.5

$$$$
>  <MOLECULAR_STRING>
C=NC(CCC)(CCC)CCC

>  <RELATIONAL_OPERATOR>
=

>  <Index LD50/ED100>
27

$$$$
>  <MOLECULAR_STRING>
CCCC(CCC)(NC)C(C)C

>  <RELATIONAL_OPERATOR>
>

>  <Index LD50/ED100>
25

$$$$
>  <MOLECULAR_STRING>
CCCC(CCC)(CCC)N1CCC1

>  <RELATIONAL_OPERATOR>
=

>  <Index LD50/ED100>
10.8

$$$$

====

# ASSAY_OVERVIEW: in vivo
# ASSAY_SETUP: mouse, po

>  <MOLECULAR_STRING>
CCCC(CCC)(CCC)N1CCC1

>  <UNIT_NAME>
mg/kg

>  <RELATIONAL_OPERATOR>
=

>  <LD50 at 240 h>
65

$$$$
>  <MOLECULAR_STRING>
CCCC(CCC)(CCC)N1CC1

>  <UNIT_NAME>
mg/kg

>  <RELATIONAL_OPERATOR>
>

>  <LD50 at 240 h>
150

$$$$
>  <MOLECULAR_STRING>
CCCC(CCC)(CCC)NCC

>  <UNIT_NAME>
mg/kg

>  <RELATIONAL_OPERATOR>
=

>  <LD50 at 240 h>
100

$$$$
>  <MOLECULAR_STRING>
C#CCNC(CCC)(CCC)CCC

>  <UNIT_NAME>
mg/kg

>  <RELATIONAL_OPERATOR>
>

>  <LD50 at 240 h>
150

$$$$
>  <MOLECULAR_STRING>
C=CCNC(CCC)(CCC)CCC

>  <UNIT_NAME>
mg/kg

>  <RELATIONAL_OPERATOR>
=

>  <LD50 at 240 h>
130

$$$$
>  <MOLECULAR_STRING>
C=NC(CCC)(CCC)CCC

>  <UNIT_NAME>
mg/kg

>  <RELATIONAL_OPERATOR>
>

>  <LD50 at 240 h>
150

$$$$
>  <MOLECULAR_STRING>
C#CCN(CC#C)C(CCC)(CCC)CCC

>  <UNIT_NAME>
mg/kg

>  <RELATIONAL_OPERATOR>
>

>  <LD50 at 240 h>
150

$$$$
>  <MOLECULAR_STRING>
CCCC(CCC)(NC)C(C)C

>  <UNIT_NAME>
mg/kg

>  <RELATIONAL_OPERATOR>
>

>  <LD50 at 240 h>
150

$$$$
>  <MOLECULAR_STRING>
C=CCC(CCC)(CCC)NC

>  <UNIT_NAME>
mg/kg

>  <RELATIONAL_OPERATOR>
=

>  <LD50 at 240 h>
170

$$$$
>  <MOLECULAR_STRING>
CC=NC(CCC)(CCC)CCC

>  <UNIT_NAME>
mg/kg

>  <RELATIONAL_OPERATOR>
=

>  <LD50 at 240 h>
120

$$$$
>  <MOLECULAR_STRING>
CCCC(CCC)(CC(C)C)N(C)C

>  <UNIT_NAME>
mg/kg

>  <RELATIONAL_OPERATOR>
=

>  <LD50 at 240 h>
110

$$$$
>  <MOLECULAR_STRING>
CCCC(CCC)(CCC)NCCO

>  <UNIT_NAME>
mg/kg

>  <RELATIONAL_OPERATOR>
=

>  <LD50 at 240 h>
150

$$$$
>  <MOLECULAR_STRING>
CCCC(CCC)(CCC)NC

>  <UNIT_NAME>
mg/kg

>  <RELATIONAL_OPERATOR>
=

>  <LD50 at 240 h>
100

$$$$
>  <MOLECULAR_STRING>
CCCC(CCC)(CCC)NCCCO

>  <UNIT_NAME>
mg/kg

>  <RELATIONAL_OPERATOR>
=

>  <LD50 at 240 h>
140

$$$$
>  <MOLECULAR_STRING>
CCCC(CCC)(CCC)N1CCOCC1

>  <UNIT_NAME>
mg/kg

>  <RELATIONAL_OPERATOR>
=

>  <LD50 at 240 h>
250

$$$$
>  <MOLECULAR_STRING>
CCCC(CCC)(CCC)N(C)CC

>  <UNIT_NAME>
mg/kg

>  <RELATIONAL_OPERATOR>
>

>  <LD50 at 240 h>
120

$$$$
